- protocol description: NCI Yeast Anticancer Drug Screen. Data for the cln2 rad14 strain (AID 165);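 also: 0% = growth equal to vehicle treated cultures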
- stated conditions: S. cerevisiae cln2 rad14 strain, at 5.0 µM (retest, dose inferred, filed as 0.5), hits give high values
About 79,000 compounds went through this panel and 15% of them were active in at least one assay; those are over-represented in the sample as a whole. Calls of active or inactive are those of the source. Rule as the data show it: active = growth inhibition above about 70%; inactive = the rest.
reported metric: growth inhibition

INSERT INTO measurements (compound, reported_metric, value_measured) VALUES
  ('CCC1(O)C(=O)OCc2c1cc1n(c2=O)Cc2cc3cc4c(cc3nc2-1)OCO4 (centres undefined)', 'growth inhibition', '90% (active)'),
  ('Nc1nc2ncnc(N)c2nc1-c1ccc(N(CCCl)CCCl)cc1', 'growth inhibition', '6% (inactive)'),
  ('O=C1C(C(Nc2ccccc2)c2ccccc2)=C([O-])c2ccccc21.O=C1C(C(Nc2ccccc2)c2ccccc2)=C([O-])c2ccccc21.[Ni+2] (centres undefined)', 'growth inhibition', '46% (inactive)'),
  ('Cc1[cH-]c(=O)n(-c2ccccc2)n1.[Au+].[Au].c1ccc([PH+](c2ccccc2)c2ccccc2)cc1.c1ccc([PH+](c2ccccc2)c2ccccc2)cc1', 'growth inhibition', '18% (inactive)');
